# target_entity: recombinantly produced human-NGF (human, UniProt P01138 122-241, limits assumed)
# Sequence (P01138 122-241 limits assumed): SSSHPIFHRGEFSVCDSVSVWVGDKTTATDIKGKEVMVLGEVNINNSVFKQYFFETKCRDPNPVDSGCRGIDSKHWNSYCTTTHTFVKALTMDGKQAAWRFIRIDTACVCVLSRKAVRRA
# assay_protocol: ELISA, human NGF coated, IgG titrated
# Protocol: NGF binding ELISA assay: In human NGF binding ELISA, Corning 3366 high binding 96 well plates were coated with recombinantly produced human-NGF at 1 μg per ml, 50 μl/well in 1×PBS, and incubated overnight at 4° C. The plates were washed and blocked with 250 μl of 1×PBS/1% BSA at least 30 minutes at room temperature. […] After adding the PNPP substrate, the ODs at 405 nm were read. […]
assay_metric: EC50 (ng/mL)
Answers are plain numbers, in ng/mL.

Look at each binder and report its EC50.
1. Ab32 (antibody, human IgG1, V domains shown) VH: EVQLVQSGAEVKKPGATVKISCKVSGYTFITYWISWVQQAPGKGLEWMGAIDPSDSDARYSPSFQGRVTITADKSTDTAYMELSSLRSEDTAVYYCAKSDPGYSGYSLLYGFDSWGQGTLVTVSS VL: DIVMTQTPLSSPVTLGQPASISCRSSQSLVQRNGNTYLSWYQQRPGQPPRLLIYQVSNRYSGVPDRFSGSGAGTDFTLKISRVEAEDVGVYYCGQGAHLPLTFGQGTKVEIK
2. Ab53 (antibody, human IgG1, V domains shown) VH: EVQLVQSGAEVKKPGESLKISCKISGYSFITYWISWVRQMPGKGLEWMGAIDPSDSDARYSPSFQGQVTISADKSISTAYLQWSSLKASDTAMYYCAKSDPGYSGYSLLYGFDSWGQGTLVTVSS VL: DVVMTQSPLSLPVTLGQPASISCRSSQSLVQRNGNTYLSWFQQRPGQSPRLLIYQVSNRYSGVPDRFSGSGSGTDFTLKISRVEAEDVGVYYCGQGAHLPLTFGQGTKVEIK

0.0403
0.0482
